MEASURED ON: Pantothenate synthetase (Mycobacterium tuberculosis, UniProt P9WIL5)
Sequence (P9WIL5 whole entry): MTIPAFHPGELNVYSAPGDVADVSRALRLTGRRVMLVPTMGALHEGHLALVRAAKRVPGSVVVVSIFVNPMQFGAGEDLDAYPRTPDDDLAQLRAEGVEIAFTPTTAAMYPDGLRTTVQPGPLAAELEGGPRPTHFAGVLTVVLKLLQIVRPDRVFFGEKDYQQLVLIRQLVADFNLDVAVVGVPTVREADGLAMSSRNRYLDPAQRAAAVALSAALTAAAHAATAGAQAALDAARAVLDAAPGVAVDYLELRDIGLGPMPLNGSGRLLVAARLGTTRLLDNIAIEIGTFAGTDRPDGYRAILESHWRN
READOUT NAME: IC50 (nM)

In [3]: df
Out[3]:
                               entry_smiles  result_units  result
0  COc1ccc(-n2cc(Cn3ncc4c3CCN(C(=O)Nc3ccccc3)C4)nn2)cc1            nM    1010
